Experiment: ATG_E_Box_CIS: Attagene CIS-FACTORIAL HepG2 Assay for human Enhancer Box (E-box) (AID 2282936)
Settings: HepG2 E-box cis-reporter transcription, actives raise or lower the signal
Calls of active or inactive are those of the source. Rule for the calls: active = hit-call score of the fitted dose curve at least 0.9, where 1 is the maximum; inactive = score below 0.9.
assay-endpoint: AC50

Completed entries (count: 5):
For the molecule Cc1nc(-c2ccc3c(c2)CCN(CCC2CCC(NC(=O)/C=C/c4ccc(F)cc4)CC2)CC3)no1 (stereo not drawn) , give its reported AC50.
inactive

For the molecule `Cc1ccc2ncccc2c1` , give its reported AC50.
inactive

For the molecule `Cc1ccc(C)c(C)c1` , give its reported AC50.
inactive

For the molecule `Nc1ccccc1N` , give its reported AC50.
inactive

For the molecule `O=C(OCCCCCOC(=O)c1ccccc1)c1ccccc1` , give its reported AC50.
inactive

Proceeding to the next molecule to report its AC50.
For the molecule `Cc1cc(NC(=O)C(=O)O)cc(C)c1Oc1ccc(O)c2c1CCC2` , give its reported AC50.
inactive

###

Assay: BSK_3C_TissueFactor: BioMAP Diversity Plus: 3C Assay for Tissue Factor Biomarker Activity (AID 2282997)
Details: BioMAP 3C HUVEC, tissue factor biomarker readout; actives raise or lower the signal
Calls of active or inactive are those of the source. Rule for the calls: active = hit-call score of the fitted dose curve at least 0.9, where 1 is the maximum; inactive = score below 0.9.
Thanks in advance; please answer with one of these: yes (1) = active, no (0) = inactive

Hi, sorry to bother you, what did the test record for `CC(=O)Oc1ccccc1C(=O)O` ?
no (0)

Hi, sorry to bother you, what did the test record for CC1(C)CC(N=C=O)CC(C)(CN=C=O)C1 (centres undefined) ?
no (0)

Hi, sorry to bother you, what did the test record for `Cc1cc(NC(=O)C(=O)O)cc(C)c1Oc1ccc(O)c2c1CCC2` ?
no (0)

Hi, sorry to bother you, what did the test record for `NCC1(Cc2noc(=O)[nH]2)CCCCC1` ?
no (0)

Others:
Hi, sorry to bother you, what did the test record for `OC[C@@H](O)[C@@H](O)[C@H](O)[C@H](O)CO` ?
no (0)

Hi, sorry to bother you, what did the test record for `CN[C@H]1CC[C@@H](c2ccc(Cl)c(Cl)c2)c2ccc(S(N)(=O)=O)cc21` ?
yes (1)

Hi, sorry to bother you, what did the test record for Cc1nc(-c2ccc3c(c2)CCN(CCC2CCC(NC(=O)/C=C/c4ccc(F)cc4)CC2)CC3)no1 (centres undefined) ?
no (0)

###

Test: BSK_SAg_PBMCCytotoxicity: PBMC Cytotoxicity Assessment in the BioMAP Diversity Plus: SAg Assay (AID 2283093);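 note: PBMC viability measured as Alamar Blue reduction fluorescence at 546/580 nm; fitted both ways against DMSO so a hit may be loss or gain of signal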
Details: primary human HUVEC with PBMC
Activity calls are given as the source filed them. How the source made its calls: active means hit-call score of the fitted dose curve at least 0.9, where 1 is the maximum; inactive means score below 0.9.
Thanks in advance; please answer with one of these: label 1 for active, label 0 for inactive

Solved entries (count: 3):
Hi, sorry to bother you, what did the test record for `CCCCCCC(=O)OCC` ?
label 0

Hi, sorry to bother you, what did the test record for `NS(=O)(=O)c1cc2c(cc1Cl)NCNS2(=O)=O` ?
label 0

Hi, sorry to bother you, what did the test record for `CN1CCCC1=O` ?
label 0

Others:
Hi, sorry to bother you, what did the test record for `CCCCCCCC=O` ?
label 0

Hi, sorry to bother you, what did the test record for `CCc1c(C(=O)NN2CCCCC2)nn(-c2ccc(Cl)cc2Cl)c1-c1ccc(Br)cc1` ?
label 1

Hi, sorry to bother you, what did the test record for `CCCCCC(=O)O` ?
label 0

Hi, sorry to bother you, what did the test record for `CN[C@H]1CC[C@@H](c2ccc(Cl)c(Cl)c2)c2ccc(S(N)(=O)=O)cc21` ?
label 1

Hi, sorry to bother you, what did the test record for `CC(C)(C)c1cc(O)c(C(C)(C)C)cc1O` ?
label 1

Hi, sorry to bother you, what did the test record for `CNC(=O)[C@H]1O[C@@H](n2cnc3c(NCc4cc(Cl)ccc4OCc4cc(C)no4)ncnc32)[C@H](O)[C@@H]1N` ?
label 0

Hi, sorry to bother you, what did the test record for `O=C(O)Cc1ccccc1Nc1c(Cl)cccc1Cl` ?
label 0

Hi, sorry to bother you, what did the test record for `O=[N+]([O-])C(CO)(CO)CO` ?
label 0

Hi, sorry to bother you, what did the test record for `FC(F)(F)C(F)(F)C(F)(F)C(F)(F)C(F)(F)C(F)(F)CCI` ?
label 0

Hi, sorry to bother you, what did the test record for `COCCOCCOC` ?
label 0

Hi, sorry to bother you, what did the test record for `NCC1(Cc2noc(=O)[nH]2)CCCCC1` ?
label 0

Hi, sorry to bother you, what did the test record for `Nc1ccccc1N` ?
label 0

Hi, sorry to bother you, what did the test record for `O=C(OCCCCCOC(=O)c1ccccc1)c1ccccc1` ?
label 0

Hi, sorry to bother you, what did the test record for `CCOc1ccc2c(c1)C(C)=CC(C)(C)N2` ?
label 1

Hi, sorry to bother you, what did the test record for `Nc1nc(N)c2nc(CNc3ccc(C(=O)N[C@@H](CCC(=O)O)C(=O)O)cc3)cnc2n1` ?
label 0
